Source: PubChem BioAssay AID1305

# protocol.description: 5-FOA growth of efflux-deficient control yeast, dose response, counter-screen for RAM network inhibitor project, S. cerevisiae, OD615 (AID 1305);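 further: plate controls were vehicle for no effect and reference inhibitor for full effect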
# conditions.used: S. cerevisiae efflux-deficient reporter strain, 5-FOA growth OD615, 2 days, active compounds read high; at 100 µM unless noted
Among all 1,200 compounds or so, fewer than 10 were called active. Not all results are given here.
Recorded max inhibition values for a group of compounds are listed next.
observable: max inhibition

compound="COC(=O)c1ccc(C2C(Oc3ccccc3C)C(=O)N2CCc2ccc(OC)c(OC)c2)cc1 (stereo not given)" observable="max inhibition" result="3.17% (inactive)"
compound=CSc1ccccc1-c1nnc(-c2ccc(Cl)cc2)o1 observable="max inhibition" result="2.32% [at 50 µM] (inactive)"
compound=CN(C)S(=O)(=O)c1cccc(NC(=O)COC(=O)C2(c3ccccc3F)CCCC2)c1 observable="max inhibition" result="1.8% [at 50 µM] (inactive)"
compound=Oc1c(Cl)cc(Cl)c(Cl)c1Cc1c(O)c(Cl)cc(Cl)c1Cl observable="max inhibition" result="0.89% [setting not given] (inactive)"
compound=COc1ccc(O[C@H]2C=C[C@@H](c3ccccc3)O[C@@H]2CO/N=C/C[C@@H]2C=C[C@H](OC(C)=O)[C@@H](COC(C)=O)O2)cc1 observable="max inhibition" result="1.15% [setting not given] (inactive)"
compound=O=[N+]([O-])c1ccc2oc(-c3cccc(O)c3)nc2c1 observable="max inhibition" result="5.09% [at 25 µM] (inactive)"
compound=CC(=O)c1c(Nc2ccccc2)sc(C(=O)c2ccccc2)c1C observable="max inhibition" result="4.16% [at 50 µM] (inactive)"
compound="COc1ccc(Cl)cc1NC(=O)NC(C)C(C)(C)C (stereo not given)" observable="max inhibition" result="1.97% [setting not given] (inactive)"
compound=O=C(NCc1ccccc1)C1=C[C@@H](C2CCCCC2)C[C@@H](OCc2ccc(CO)cc2)O1 observable="max inhibition" result="5.02% (inactive)"
compound="COC(=O)CCCCCN1C(=O)NC(c2ccc(-c3ccccc3)cc2)C(C(=O)OCc2ccccc2)=C1C (stereo not given)" observable="max inhibition" result="4.42% [at 25 µM] (inactive)"
compound=N#C/C(=C\C1=C(N2CCOCC2)C(=C\c2ccccc2)/CC1)C(=O)Nc1ccccc1F observable="max inhibition" result="1.39% [setting not given] (inactive)"
compound=O=C(CSCc1ccc(Br)cc1)Nc1ccc(S(=O)(=O)N2CCCCCC2)cc1 observable="max inhibition" result="2.51% (inactive)"
compound=CC1CCN(C(=S)c2ccc(-c3ccc(Cl)cc3Cl)o2)CC1 observable="max inhibition" result="4.91% (inactive)"
compound=Cc1ccc(CCC(=O)Nc2ncc(Cc3cc(Cl)ccc3Cl)s2)o1 observable="max inhibition" result="2.81% (inactive)"
compound=Cc1cc2ccccc2n1CCNC(=O)COc1ccc2ccccc2c1 observable="max inhibition" result="4.22% (inactive)"
compound=Cc1cccc(-n2c(SCC(=O)Nc3cccc(S(=O)(=O)NC4=NCCCCC4)c3)nc3ccccc3c2=O)c1C observable="max inhibition" result="2.12% [setting not given] (inactive)"
compound="COC(=O)CCSc1cc([N+](=O)[O-])cc2c1c(C1OCCS1)nn2-c1ccccc1 (stereo not given)" observable="max inhibition" result="4.89% [at 12.5 µM] (inactive)"
compound=Fc1ccc(-n2c(Cc3ccccc3)nnc2SCc2nc(-c3ccc(Cl)cc3)no2)cc1 observable="max inhibition" result="1.1% [setting not given] (inactive)"
compound=O=C(COC(=O)/C=C/c1nc2ccccc2s1)Nc1ccccc1Oc1ccccc1 observable="max inhibition" result="1.95% [at 1.563 µM] (inactive)"
compound=COc1c(Br)cc2c(C)c(C(=O)N3CCOCC3)oc2c1Br observable="max inhibition" result="1.57% [setting not given] (inactive)"

---

# protocol.description: 5-FOA growth of efflux-deficient control yeast, dose response, counter-screen for RAM network inhibitor project, S. cerevisiae, OD615 (AID 1305);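 further: plate controls were vehicle for no effect and reference inhibitor for full effect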
# conditions.used: S. cerevisiae efflux-deficient reporter strain, 5-FOA growth OD615, 2 days, active compounds read high; at 100 µM unless noted
In all, about 1,200 compounds went through this assay and fewer than 10 were called active. The list is a sample of the results.
Label scheme for max inhibition: lower than 3% is class 0, 3% and above is class 1.

compound="COc1ccc(C2C=C(c3ccc(Br)cc3)Nc3nc(NS(C)(=O)=O)nn32)cc1 (stereo not given)" label_value="class 1"
compound=Cc1ccccc1CSCCNC(=O)c1ccc(N(C)S(=O)(=O)c2ccccc2)cc1 label_value="class 1"
compound=COc1ccc(OCCCn2cccc2/C=C2/C(=N)N3OC(C)=CC3=NC2=O)cc1 label_value="class 1"
compound=Cc1c(N=Nc2ccc(N(C)C)cc2)c(=O)n(-c2ccccc2)n1C label_value="class 1"
compound=N/C(Cc1ccc([N+](=O)[O-])cc1)=N\OC(=O)COc1ccc2ccccc2c1 label_value="class 0"

---

# protocol.description: 5-FOA growth of efflux-deficient control yeast, dose response, counter-screen for RAM network inhibitor project, S. cerevisiae, OD615 (AID 1305);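 further: plate controls were vehicle for no effect and reference inhibitor for full effect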
# conditions.used: S. cerevisiae efflux-deficient reporter strain, 5-FOA growth OD615, 2 days, active compounds read high; at 100 µM unless noted
Out of some 1,200 compounds screened, fewer than 10 were called active. The list is a sample of the results.
This section presents molecules with their documented max inhibition values.
observable: max inhibition

molecule="CCOc1ccc(CN(Cc2ccco2)C(c2cccs2)c2nnnn2C(C)(C)C)cc1 (stereo not drawn)" result="4.45% (inactive)"
molecule=COc1ccc(/C=C(\NC(=O)c2ccc(OCC(C)C)cc2)C(=O)OCc2ccco2)cc1 result="3.48% (inactive)"
molecule=Clc1ccccc1CSc1nnc(-c2ccco2)c(-c2ccco2)n1 result="7.87% (inactive)"
molecule=CCC(C)(C)c1ccc(Oc2ccc(NC(=O)COC(=O)C3=COCCO3)cc2)cc1 result="1.41% (inactive)"
molecule="CCCC(C(=O)n1nc(C)cc1C)C(NS(=O)(=O)c1ccc(C)cc1)c1ccccc1 (stereo not drawn)" result="2.29% [at 1.563 µM] (inactive)"
molecule=NS(=O)(=O)c1ccc(NC(=S)NC(=O)c2cccc(Br)c2)cc1 result="2.4% [at 1.563 µM] (inactive)"
molecule=C=CCO/N=C(\C)c1c(O)c(C)c(-c2ccccc2)n(-c2ccccc2)c1=O result="3.26% (inactive)"
molecule=O=C(CCC(=O)OCc1cccc(C(=O)Oc2ccccc2)c1)Nc1cccc2ccccc12 result="2.95% [at 12.5 µM] (inactive)"
molecule="CCC1C/C(=C/c2cccs2)C(=O)/C(=C/c2cccs2)C1 (stereo not drawn)" result="6.29% (inactive)"
molecule=Cc1ccc(C(=O)c2c(NC(=O)c3ccccc3)sc(C)c2C)cc1 result="2.97% [setting not given] (inactive)"
molecule=CN(c1ccccc1)c1ccc(/C=c2\s/c(=C(/C#N)C(=O)C(C)(C)C)n(Cc3ccco3)c2=O)cc1 result="4.2% [at 25 µM] (inactive)"
molecule="CC(O)C(NS(=O)(=O)c1ccc(Cl)cc1)C(=O)OCc1cc([N+](=O)[O-])cc2c1OCOC2 (stereo not drawn)" result="1.67% (inactive)"
molecule=O=C(OCc1ccc(Br)cc1)c1cccc(-c2nnc(-c3ccccc3)o2)c1 result="3.97% [at 50 µM] (inactive)"

---

# protocol.description: 5-FOA growth of efflux-deficient control yeast, dose response, counter-screen for RAM network inhibitor project, S. cerevisiae, OD615 (AID 1305);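 further: plate controls were vehicle for no effect and reference inhibitor for full effect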
# conditions.used: S. cerevisiae efflux-deficient reporter strain, 5-FOA growth OD615, 2 days, active compounds read high; at 100 µM unless noted
Fewer than 10 of roughly 1,200 compounds were called active. The list is a sample of the results.
observable: max inhibition

compound=O=C(COC(=O)CCCNC(=O)c1ccc(Cl)cc1)Nc1cc(Cl)ccc1Cl observable="max inhibition" result="3.65% (inactive)"
compound=c1ccc(-c2csc(N3CCc4ccccc4C3)n2)cc1 observable="max inhibition" result="4.47% (inactive)"
compound=O=C1/C(=C/c2ccc3c(c2)OCO3)CCC/C1=C\c1ccc2c(c1)OCO2 observable="max inhibition" result="4.85% [at 50 µM] (inactive)"
compound="CCOC(=O)CSC1=C(C#N)C(c2ccco2)C(C(=O)OCc2ccccc2)=C(C)N1 (stereo not given)" observable="max inhibition" result="1.67% (inactive)"
compound=CCOC(=O)c1c(C)nc2c(c1C)c(=O)oc1ccccc12 observable="max inhibition" result="1.3% [at 25 µM] (inactive)"
compound=CCOC(=O)CC(=O)CSc1nc(-c2ccccc2)cc(-c2ccc(Cl)cc2)c1C#N observable="max inhibition" result="1.73% [setting not given] (inactive)"
compound="COc1ccc(C)cc1NC(=O)C(Sc1ccccc1)c1ccccc1 (stereo not given)" observable="max inhibition" result="4.82% (inactive)"
compound=Fc1ccc(CSc2nnc(-c3cc4c(s3)-c3ccccc3CC4)o2)cc1 observable="max inhibition" result="4.57% (inactive)"
compound=O=C(NCc1ccccc1)C1=C[C@@H](c2ccc(C(F)(F)F)cc2)C[C@@H](OCc2ccc(CO)cc2)O1 observable="max inhibition" result="3.48% (inactive)"
compound=COc1ccc(/C(C)=N/Nc2cc(C(F)(F)F)ccc2Cl)c(OC)c1 observable="max inhibition" result="2.82% (inactive)"
